- System: NaV1.5 (Homo sapiens (Human))
- Sequence (Q14524 other isoform, or with tags, fused parts or gaps): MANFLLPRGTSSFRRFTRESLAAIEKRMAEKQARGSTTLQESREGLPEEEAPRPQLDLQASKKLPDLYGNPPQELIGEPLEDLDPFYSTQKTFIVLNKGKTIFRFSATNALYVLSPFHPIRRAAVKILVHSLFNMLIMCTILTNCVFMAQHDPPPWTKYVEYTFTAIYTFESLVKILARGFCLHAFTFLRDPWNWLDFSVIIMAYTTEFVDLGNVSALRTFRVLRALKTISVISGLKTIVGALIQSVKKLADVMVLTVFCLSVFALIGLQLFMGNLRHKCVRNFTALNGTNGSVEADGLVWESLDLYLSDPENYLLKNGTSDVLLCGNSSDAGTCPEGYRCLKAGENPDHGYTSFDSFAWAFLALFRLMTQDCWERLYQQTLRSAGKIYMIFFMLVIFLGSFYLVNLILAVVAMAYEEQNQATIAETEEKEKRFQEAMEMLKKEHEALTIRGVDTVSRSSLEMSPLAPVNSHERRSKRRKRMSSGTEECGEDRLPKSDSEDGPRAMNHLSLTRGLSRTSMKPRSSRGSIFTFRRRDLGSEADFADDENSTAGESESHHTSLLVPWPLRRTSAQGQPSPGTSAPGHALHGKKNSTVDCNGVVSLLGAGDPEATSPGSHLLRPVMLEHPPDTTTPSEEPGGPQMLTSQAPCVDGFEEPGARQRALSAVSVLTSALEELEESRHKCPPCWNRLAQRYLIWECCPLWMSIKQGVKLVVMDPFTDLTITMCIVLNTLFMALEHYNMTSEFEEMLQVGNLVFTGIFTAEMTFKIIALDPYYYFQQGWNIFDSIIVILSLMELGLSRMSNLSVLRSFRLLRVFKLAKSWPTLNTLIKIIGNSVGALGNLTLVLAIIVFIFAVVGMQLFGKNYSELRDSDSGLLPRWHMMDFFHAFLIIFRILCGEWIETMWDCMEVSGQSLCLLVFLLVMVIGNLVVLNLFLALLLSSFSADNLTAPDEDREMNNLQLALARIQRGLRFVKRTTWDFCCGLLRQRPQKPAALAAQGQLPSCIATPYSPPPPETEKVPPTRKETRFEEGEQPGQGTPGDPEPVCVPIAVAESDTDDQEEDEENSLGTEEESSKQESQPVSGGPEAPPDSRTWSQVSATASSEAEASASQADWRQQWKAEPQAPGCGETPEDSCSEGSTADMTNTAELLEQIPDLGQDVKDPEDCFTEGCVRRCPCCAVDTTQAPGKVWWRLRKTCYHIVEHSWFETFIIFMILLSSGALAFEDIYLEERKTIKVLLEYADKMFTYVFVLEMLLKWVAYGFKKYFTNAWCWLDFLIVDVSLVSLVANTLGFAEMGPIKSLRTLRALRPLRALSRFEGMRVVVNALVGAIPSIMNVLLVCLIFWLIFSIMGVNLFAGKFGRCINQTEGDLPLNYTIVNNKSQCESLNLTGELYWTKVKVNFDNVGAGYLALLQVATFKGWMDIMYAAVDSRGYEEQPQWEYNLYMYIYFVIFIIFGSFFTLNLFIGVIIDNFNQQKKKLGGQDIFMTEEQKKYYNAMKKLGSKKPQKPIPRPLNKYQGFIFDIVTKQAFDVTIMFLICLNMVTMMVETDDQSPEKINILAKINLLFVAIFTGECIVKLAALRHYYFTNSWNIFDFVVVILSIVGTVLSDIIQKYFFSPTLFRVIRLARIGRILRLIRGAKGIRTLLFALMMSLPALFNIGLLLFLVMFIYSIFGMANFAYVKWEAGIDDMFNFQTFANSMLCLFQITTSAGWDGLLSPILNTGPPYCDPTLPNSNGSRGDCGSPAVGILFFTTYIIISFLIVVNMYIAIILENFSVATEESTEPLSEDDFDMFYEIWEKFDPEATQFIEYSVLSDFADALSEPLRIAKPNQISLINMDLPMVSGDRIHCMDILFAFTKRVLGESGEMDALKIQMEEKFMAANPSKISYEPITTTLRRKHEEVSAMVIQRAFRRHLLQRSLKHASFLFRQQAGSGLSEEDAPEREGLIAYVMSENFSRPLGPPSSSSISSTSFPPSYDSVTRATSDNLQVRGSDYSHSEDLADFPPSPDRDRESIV
- Assay text: Sodium Influx Assay (Flux), NaV1.5
- Recorded conditions: read-out: Flux NaV1.5 IC50; Trex HEK293 cells, ANG2 dye, inactivated state
Counter-ions that a name gives are not always drawn.
Flag rule - IC50 less than 10 µM flags true; the remaining entries get false.

CCN(CC)Cc1cccc(F)c1CNc1cc(F)c(S(=O)(=O)Nc2cscn2)c(F)c1 [Example 183, formate]: false
C[C@H](Nc1cc(F)c(S(=O)(=O)Nc2cscn2)cc1Cl)c1cc(CN2CCCCC2)ccc1F [Example 256, formate]: true
C[C@H](Nc1ccc(S(=O)(=O)Nc2nccs2)c(F)c1Cl)c1ccccc1F [Example 9]: true
C[C@H](Nc1cc(F)c(S(=O)(=O)Nc2ccnc(C(F)(F)F)n2)cc1Cl)c1ccccc1Cl [Example 245]: true
Cc1c(NCc2c(Cl)ccc(F)c2CN2CCC2)cc(F)c(S(=O)(=O)Nc2cscn2)c1F [Example 313, 2,2,2-trifluoroacetate]: false
CN(C)Cc1ccccc1C1(Nc2cc(F)c(S(=O)(=O)Nc3cscn3)cc2Cl)CC1 [Example 217, 2,2,2-trifluoroacetate]: false

Moving on to the next molecule.
Qu. Problem: For the molecule O=S(=O)(Nc1ccncn1)c1c(F)cc(NCc2ccccc2CN2CCC2)cc1F [Example 311, formate] , is IC50 under 10 µM?
Ans. false

###

- System: NaV1.5 (Homo sapiens (Human))
- Assay text: Sodium Influx Assay (Flux), NaV1.5
- Recorded conditions: read-out: Flux NaV1.5 IC50; Trex HEK293 cells, ANG2 dye, inactivated state
Structures can show the parent of a compound that is named as a salt.
In this section, each of the molecules is paired with its reported IC50.
I only need the number, in µM, no unit after it.

Some molecules with known IC50 results, for comparison:
O=S(=O)(Nc1cscn1)c1cc(Cl)c(NCc2cc(CCN3CCC3)ccc2F)cc1F [Example 262, formate]: 7.32
CN1CC(Oc2cccc(F)c2CNc2cc(F)c(S(=O)(=O)Nc3cscn3)c(F)c2)C1 [Example 326, formate]: 12.7
O=S(=O)(Nc1cscn1)c1cc(Cl)c(NCc2c(F)ccc3cn[nH]c23)cc1F [Example 334, formate]: 30
O=S(=O)(Nc1ccon1)c1c(F)cc(NCc2c(F)cccc2CN2CCC2)cc1F [Example 204, 2,2,2-trifluoroacetate]: 23.1
CCC(Nc1cc(F)c(S(=O)(=O)Nc2ncns2)cc1F)c1ccccc1 (stereo not shown): 30
CN1CCN(Cc2cccc(F)c2CNc2cc(F)c(S(=O)(=O)Nc3cscn3)c(F)c2)CC1 [Example 151, formate]: 30

Qu. Data request, read-out IC50, for COCc1ccc(F)c([C@H](C)Nc2cc(F)c(S(=O)(=O)Nc3cscn3)c(F)c2)c1
Ans. 27.5

###

In this section, each of the molecules is paired with its reported IC50.
- System: NaV1.5 (Homo sapiens (Human))
- Assay text: Sodium Influx Assay (Flux), NaV1.5
- Recorded conditions: read-out: Flux NaV1.5 IC50; Trex HEK293 cells, ANG2 dye, inactivated state
Counter-ions that a name gives are not always drawn.
I only need the number, in µM, no unit after it.

Some molecules with known IC50 results, for comparison:
O=S(=O)(Nc1cscn1)c1c(F)cc(NCc2c(F)cccc2CN2CC3(CCO3)C2)cc1F [Example 156, formate]: 30
O=S(=O)(Nc1cscn1)c1c(F)cc(NCc2c(F)ccc(F)c2CN2CCC2)c(F)c1F [Example 215, 2,2,2-trifluoroacetate]: 21.5
C[C@H](Nc1cc(F)c(S(=O)(=O)Nc2cscn2)c(F)c1)c1cc(C(F)F)ccc1F: 12.4
C[C@H](Nc1ccc(S(=O)(=O)Nc2nccs2)cc1Cl)c1ccccc1F: 2.55

Qu. Data request, read-out IC50, for O=S(=O)(Nc1cscn1)c1c(F)cc(NCc2c(F)cccc2CN2CCCC2)cc1F [Example 166, formate]
Ans. 15.2

Qu. Data request, read-out IC50, for C[C@H](Nc1cc(F)c(S(=O)(=O)Nc2nccs2)cc1Cl)c1cccc(Cl)c1
Ans. 6.07

Qu. Data request, read-out IC50, for C[C@H](Nc1cc(F)c(S(=O)(=O)Nc2ncc(F)s2)cc1Cl)c1ccccc1F
Ans. 5.44

Qu. Data request, read-out IC50, for O=S(=O)(Nc1cccc(F)n1)c1c(F)cc(NCc2c(F)cccc2CN2CCC2)cc1F [Example 322, formate]
Ans. 30

###

- System: NaV1.5 (Homo sapiens (Human))
- Assay text: Sodium Influx Assay (Flux), NaV1.5
- Recorded conditions: read-out: Flux NaV1.5 IC50; Trex HEK293 cells, ANG2 dye, inactivated state
Counter-ions that a name gives are not always drawn.
In this section, each of the molecules is paired with its reported pIC50.
Scale: negative log10 of molar concentration, which is what pIC50 denotes.

O=S(=O)(Nc1ccon1)c1cc(Cl)c(NCc2ccccc2CN2CCC2)cc1F: 4.52

Qu. Data request, read-out pIC50, for CCOC1(C)CN(Cc2cccc(F)c2CNc2cc(F)c(S(=O)(=O)Nc3cscn3)c(F)c2)C1 [Example 152, formate]
Ans. 4.72

Qu. Data request, read-out pIC50, for CC(C)C[C@H](Nc1cc(F)c(S(=O)(=O)Nc2nccs2)cc1Cl)c1ccccc1
Ans. 5.10

Qu. Data request, read-out pIC50, for O=S(=O)(Nc1cccc(F)n1)c1cc(Cl)c(N[C@H](CN2CCCC2)c2ccccc2)cc1F [Example 72, 2,2,2-trifluoroacetate]
Ans. 4.52

Qu. Data request, read-out pIC50, for Cc1c(NCc2c(F)cccc2CN2CCC2(C)C)ccc(S(=O)(=O)Nc2cscn2)c1F
Ans. 5.09

Qu. Data request, read-out pIC50, for C[C@H](Nc1ccc(S(=O)(=O)Nc2ccncn2)c(F)c1Cl)c1ccccc1Cl
Ans. 4.70

Qu. Data request, read-out pIC50, for O=S(=O)(Nc1cscn1)c1c(F)cc(NCc2c(Cl)cccc2CN2CCC2)cc1F [Example 290, 2,2,2-trifluoroacetate]
Ans. 4.60

Qu. Data request, read-out pIC50, for C[C@H](Oc1cc(F)c(S(=O)(=O)Nc2cscn2)cc1Cl)c1cccc(F)c1
Ans. 5.12

###

- System: NaV1.5 (Homo sapiens (Human))
- Assay text: Sodium Influx Assay (Flux), NaV1.5
pIC50: −log10 of the molar value. Counter-ions that a name gives are not always drawn.
Values of pIC50 greater than or equal to 5 map to satisfied; values below map to not satisfied.

C[C@H](Nc1cc(F)c(S(=O)(=O)Nc2cnccn2)cc1Cl)c1cc(Cl)ccc1F: not satisfied
O=S(=O)(Nc1cscn1)c1cc(Cl)c(NCc2c(F)cccc2CN2CC3(CCC3)C2)cc1F: satisfied
O=S(=O)(Nc1cscn1)c1c(F)cc(NCc2c(F)cccc2CN2CC3(C2)CC(F)(F)C3)cc1F [Example 160, formate]: not satisfied
C[C@@H](Oc1ccc(S(=O)(=O)Nc2ncns2)cc1Cl)c1ccccc1 (racemic): not satisfied

Qu. # bool: pIC50 of CC(C)CC(Nc1cc(F)c(S(=O)(=O)Nc2nccs2)cc1Cl)c1ccccc1 (centres unmarked) >= 5
Ans. satisfied

###

- System: NaV1.1 (Homo sapiens (Human))
- Assay text: Sodium Influx Assay (Flux), NaV1.1;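 also: channels co-expressed with human β1 subunit and held open by modulators, cells exposed to compounds for one hour at room temperature, IC50 from percent inhibition of influx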
- Assay type: cell-based
- Recorded conditions: Trex HEK293 cells, ANG2 dye, inactivated state
Counter-ions that a name gives are not always drawn.
Value type: IC50 (µM)
I only need the number, in µM, no unit after it.

Some molecules with known IC50 results, for comparison:
COCCN(C)Cc1cccc(F)c1CNc1cc(F)c(S(=O)(=O)Nc2cscn2)c(F)c1 [Example 162, formate]: 30
C[C@@H](c1cccc(F)c1CNc1cc(F)c(S(=O)(=O)Nc2cscn2)c(F)c1)N1CCC1 [Example 278, formate]: 14.2
C[C@@H](Nc1cc(F)c(S(=O)(=O)Nc2cscn2)cc1Cl)c1cccc(CN(C)C)c1 [Example 254, formate]: 14.1

For the next question, use this molecule.
Qu. Data request, read-out IC50, for O=S(=O)(Nc1cscn1)c1cc(Cl)c(NCc2ccccc2CCN2CCC2)cc1F [Example 261, formate]
Ans. 28.9

###

In this section, each of the compounds is paired with its reported IC50.
- System: NaV1.1 (Homo sapiens (Human))
- Assay text: Electrophysiological Assay (EP), patch voltage clamp, NaV1.1;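 also: sodium current block measured at ambient temperature, holding at fully inactivating potential, 20 ms repolarization to −150 mV before test pulse, versus 0.5% DMSO control currents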
- Type: cell-based
- Recorded conditions: HEK-293 cells, whole-cell patch clamp
Counter-ions that a name gives are not always drawn.
I only need the number, in µM, no unit after it.

O=S(=O)(Nc1cscn1)c1c(F)cc(NCc2ccccc2CN2CCC2)cc1F [Example 272, formate]: 10
O=S(=O)(Nc1cscn1)c1cc(Cl)c(N[C@H](CN2CCCC2)c2ccccc2)cc1F [Example 73]: 10
Cc1cc(S(=O)(=O)Nc2cscn2)c(F)cc1NCc1c(F)cccc1CN1CC(F)C1 [Example 137]: 10
O=S(=O)(Nc1nccs1)c1cc(Cl)c(NC(CC(F)(F)F)c2ccccc2)cc1F (centres unmarked) [Example 41]: 0.031
C[C@H](Oc1cc(F)c(S(=O)(=O)Nc2nccs2)cc1Cl)c1c(F)cccc1F [Example 119]: 8.94
CN(C)C[C@@H](Nc1cc(F)c(S(=O)(=O)Nc2nccs2)cc1Cl)c1ccccc1 [Example 64, 2,2,2-trifluoroacetate]: 10
O=S(=O)(Nc1cscn1)c1c(F)cc(NCc2c(F)cccc2CN2CC(F)C2)cc1F [Example 194, formate]: 10

Qu. Data request, read-out IC50, for O=S(=O)(Nc1nccs1)c1ccc(NC2(c3ccccc3)CCC2)c(Cl)c1 [Example 104]
Ans. 4.51
